Documented relative KD to VH0/Vκ0 across a set of binders
# experimentalSystem: T1, His-tagged CEACAM1 (human, UniProt P13688 35-428)
# T1 construct: 45 kDa SPR analyte; also called CEACAM1-HIS; CEACAM1 analyte
# T1 sequence: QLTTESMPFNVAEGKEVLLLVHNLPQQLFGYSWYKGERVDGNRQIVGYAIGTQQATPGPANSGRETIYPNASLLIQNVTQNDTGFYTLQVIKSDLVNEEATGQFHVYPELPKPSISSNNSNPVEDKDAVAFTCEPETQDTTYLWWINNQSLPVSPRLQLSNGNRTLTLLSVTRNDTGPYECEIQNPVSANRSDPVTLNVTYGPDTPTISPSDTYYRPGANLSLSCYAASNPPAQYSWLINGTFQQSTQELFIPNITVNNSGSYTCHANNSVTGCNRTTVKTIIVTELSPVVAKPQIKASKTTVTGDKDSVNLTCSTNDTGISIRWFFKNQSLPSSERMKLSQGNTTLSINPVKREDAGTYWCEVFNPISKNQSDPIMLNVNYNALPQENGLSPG
# protocolNotes: SPR single-cycle, IgG captured
API doc: respond with a numeric literal and nothing else, no unit.

// below: answered binders
| binder | recordedValue |
| --- | --- |
| VH2/Vκ4 (antibody, IgG4, V domains shown, IgG4 (S241P), kappa) VH: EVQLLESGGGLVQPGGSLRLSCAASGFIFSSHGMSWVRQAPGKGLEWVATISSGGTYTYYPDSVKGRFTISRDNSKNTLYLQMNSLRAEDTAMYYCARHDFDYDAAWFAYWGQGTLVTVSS VL: EIVLTQSPATLSLSPGERATLSCRANSSVSYMYWYQQKPGQAPRPWIYLTSNRATGIPARFSGSGSGTDYTLTISSLEPEDFATYYCQQWSSNPPTFGQGTKLEIK | 2.5 |
| VH1/Vκ7 (antibody, IgG4, V domains shown, IgG4 (S241P), kappa) VH: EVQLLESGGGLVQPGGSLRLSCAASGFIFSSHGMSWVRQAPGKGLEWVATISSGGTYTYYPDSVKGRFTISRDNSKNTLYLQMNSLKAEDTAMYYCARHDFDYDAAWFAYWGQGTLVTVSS VL: EIVLTQSPATLSLSPGERATLSCRANSSVSYMYWYQQKPGQAPRPWIYLTSNRATGVPARFSGSGSGTDFTLTISSLEPEDFATYYCQQWSSNPPTFGQGTKLEIK | 2.6 |

Now take the following binder into account.
For VH1/Vκ0 (antibody, IgG4, V domains shown, IgG4 (S241P), kappa; also called VH1/Vκ0 (control)) VH: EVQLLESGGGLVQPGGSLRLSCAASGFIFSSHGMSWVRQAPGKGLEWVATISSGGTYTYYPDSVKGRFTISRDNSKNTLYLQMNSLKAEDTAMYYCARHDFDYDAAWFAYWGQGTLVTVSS VL: QIVLTQSPALMSASPGVKVTMTCSANSSVSYMYWYRQKPRSSPKPWIYLTSNLASGVPARFSGSGSGTSYSLTISSMEAEDAATYYCQQWSSNPPTFGSGTKLEIK , what is its reported relative KD to VH0/Vκ0? 1.5
